Could you please report measured IC50 for the items listed next?
molecular target: Geranylgeranyl transferase type I (Bos taurus, UniProt P29702+Q5EAD5); experiment: Inhibition of Bovine geranylgeranyl transferase
Give bare numbers, in nM.

Some solved cases for reference:
Cn1cncc1C(OCc1ccc(C#N)c(NCCc2ccccc2)n1)c1ccc(C#N)c(-c2ccccc2C(F)(F)F)c1 (configuration not stated)
2300
Cn1cncc1C(OCc1ccc(C#N)c(NCc2cccc(F)c2)n1)c1ccc(C#N)c(-c2ccccc2C(F)(F)F)c1 (configuration not stated)
750
Cn1cncc1C(OCc1ccc(C#N)cn1)c1ccc(C#N)c(-c2ccccc2C(F)(F)F)c1 (configuration not stated)
1500
CC(=O)NC1CCN(c2nc(COC(c3ccc(C#N)c(-c4ccccc4C(F)(F)F)c3)c3cncn3C)ccc2C#N)C1 (configuration not stated)
1600
CC(=O)N1CCN(c2nc(COC(c3ccc(C#N)c(-c4ccccc4C(F)(F)F)c3)c3cncn3C)ccc2C#N)CC1 (configuration not stated)
1800
Cn1cncc1C(OCc1ccc(C#N)c(N2CCC(O)C2)n1)c1ccc(C#N)c(-c2ccccc2C(F)(F)F)c1 (configuration not stated)
970
Cn1cncc1C(OCc1ccc(C#N)c(N2CCC(CO)CC2)n1)c1ccc(C#N)c(-c2ccccc2C(F)(F)F)c1 (configuration not stated)
1400
Cn1cncc1C(OCc1ccc(F)c(C(F)(F)F)c1)c1ccc(C#N)c(-c2ccccc2C(F)(F)F)c1 (configuration not stated)
120
Cc1ccccc1-c1cc(C(OCc2ccc(C#N)cc2)c2cncn2C)ccc1C#N (stereo in doubt; 10a)
180
Cn1cncc1C(OCc1ccc(C#N)c(N2CCC[C@@H]2CO)n1)c1ccc(C#N)c(-c2ccccc2C(F)(F)F)c1 (some centres not stated)
920

Dear reader, for each entry below, please note its IC50.
1. Cn1cncc1C(OCc1ccc(C#N)cc1)c1ccc(C#N)c(-c2cccc(Cl)c2Cl)c1 (configuration not stated)
2. Cn1cncc1C(OCc1ccc(C#N)c(N2CCN(CCO)CC2)n1)c1ccc(C#N)c(-c2ccccc2C(F)(F)F)c1 (configuration not stated)
3. Cn1cncc1C(OCc1ccc(C(F)(F)F)c(F)c1)c1ccc(C#N)c(-c2ccccc2C(F)(F)F)c1 (configuration not stated)
4. Cc1cccc(-c2cc(C(OCc3ccc(C#N)cc3)c3cncn3C)ccc2C#N)c1C (configuration not stated)
5. Cn1cncc1C(OCc1ccc(C#N)cc1)c1ccc(C#N)c(-c2ccccc2C(F)(F)F)c1 (configuration not stated)
6. Cn1cncc1C(OCc1ccc(C#N)c(NCC2CCCO2)n1)c1ccc(C#N)c(-c2ccccc2C(F)(F)F)c1 (configuration not stated)

**Result**
[85, 2000, 160, 130, 310, 2400]

**Query** Please give the measured IC50 for this compound: Cn1cncc1C(OCc1ccc(C#N)c(N2CCOCC2)n1)c1ccc(C#N)c(-c2ccccc2C(F)(F)F)c1 (configuration not stated)
**Result** 1200

* * *

Could you please report measured EC50 for the items listed next?
molecular target: Protein farnesyltransferase (Mus musculus, UniProt Q61239+Q8K2I1); test: Effective concentration against H-ras processing in transformed NIH3T3 cells; format: functional, cell-based
Answers are plain numbers, in nM.

Some solved cases for reference:
Cn1cncc1C(OCc1ccc(C#N)cc1)c1ccc(C#N)c(-c2ccccc2C(F)(F)F)c1 (configuration not stated)
85
CC(=O)N1CCN(c2nc(COC(c3ccc(C#N)c(-c4ccccc4C(F)(F)F)c3)c3cncn3C)ccc2C#N)CC1 (configuration not stated)
130
Cn1cncc1C(OCc1ccc(C#N)cc1)c1ccc(C#N)c(-c2ccccc2C=O)c1 (configuration not stated)
110
Cn1cncc1C(OCc1ccc(C#N)c(N2CCCC(O)C2)n1)c1ccc(C#N)c(-c2ccccc2C(F)(F)F)c1 (configuration not stated)
13
Cn1cncc1C(OCc1ccc(C#N)c(NCC2CCOC2)n1)c1ccc(C#N)c(-c2ccccc2C(F)(F)F)c1 (configuration not stated)
201

Dear reader, for each entry below, please note its EC50.
1. CN1CCN(c2nc(COC(c3ccc(C#N)c(-c4ccccc4C(F)(F)F)c3)c3cncn3C)ccc2C#N)CC1 (configuration not stated)
2. CC(=O)NC1CCN(c2nc(COC(c3ccc(C#N)c(-c4ccccc4C(F)(F)F)c3)c3cncn3C)ccc2C#N)C1 (configuration not stated)
3. Cn1cncc1C(OCc1ccc(C#N)c(N2CCN(CCO)CC2)n1)c1ccc(C#N)c(-c2ccccc2C(F)(F)F)c1 (configuration not stated)
4. Cc1ccccc1-c1cc(C(OCc2ccc(C#N)cc2)c2cncn2C)ccc1C#N (stereo in doubt; 10a)
5. Cn1cncc1C(OCc1ccc(C#N)c(N2CCC[C@@H]2C(=O)O)n1)c1ccc(C#N)c(-c2ccccc2C(F)(F)F)c1 (some centres not stated)

**Result**
1. 53
2. 330
3. 30
4. 420
5. 210

Dear reader, for each entry below, please note its EC50.
1. Cn1cncc1C(OCc1ccc(C#N)c(N2CCC(CO)CC2)n1)c1ccc(C#N)c(-c2ccccc2C(F)(F)F)c1 (configuration not stated)
2. Cn1cncc1C(OCc1ccc(C#N)cc1)c1ccc(C#N)c(-c2cccc3ccccc23)c1 (configuration not stated)
3. Cn1cncc1C(OCc1ccc(C#N)c(N2CCOCC2)n1)c1ccc(C#N)c(-c2ccccc2C(F)(F)F)c1 (configuration not stated)
4. Cn1cncc1C(OCc1ccc(F)c(C(F)(F)F)c1)c1ccc(C#N)c(-c2ccccc2C(F)(F)F)c1 (configuration not stated)

**Result**
[11, 110, 89, 100]

* * *

molecular target: Protein farnesyltransferase (Mus musculus, UniProt Q61239+Q8K2I1); test: Effective concentration against H-ras processing in transformed NIH3T3 cells; type: functional, cell-based
ASSAY_METRIC: EC50 (nM)
One number for each entry, in nM.

Cn1cncc1C(OCc1ccc(C#N)c(NCC2CCCO2)n1)c1ccc(C#N)c(-c2ccccc2C(F)(F)F)c1 (configuration not stated)
285
Cn1cncc1C(OCc1ccc(C#N)cc1)c1ccc(C#N)c(-c2cccc(Cl)c2Cl)c1 (configuration not stated)
240
Cn1cncc1C(OCc1ccc(C#N)c(N2CCC[C@@H]2CO)n1)c1ccc(C#N)c(-c2ccccc2C(F)(F)F)c1 (some centres not stated)
170
Cn1cncc1C(OCc1ccc(C#N)cn1)c1ccc(C#N)c(-c2ccccc2C(F)(F)F)c1 (configuration not stated)
90

**Query** Checklist item: EC50 tested on Protein farnesyltransferase (Mus musculus, UniProt Q61239+Q8K2I1), entry Cn1cncc1C(OCc1ccc(C#N)c(N2CCC(O)C2)n1)c1ccc(C#N)c(-c2ccccc2C(F)(F)F)c1 (configuration not stated) , value?
**Result** 120

* * *

molecular target: Protein farnesyltransferase (Bos taurus, UniProt P29702+P49355); experiment: Inhibition of Bovine farnesyl transferase
Could you please report measured log10(IC50) for the items listed next?
Please interpret these as log10 of IC50 where IC50 is in nM.

Cn1cncc1C(OCc1ccc(C#N)c(N2CCCC(O)C2)n1)c1ccc(C#N)c(-c2ccccc2C(F)(F)F)c1 (stereo not given)
0.11
Cc1ccccc1-c1cc(C(OCc2ccc(S(C)(=O)=O)cc2)c2cncn2C)ccc1C#N (stereo not given)
1.58
Cc1ccc(COC(c2ccc(C#N)c(-c3ccccc3C)c2)c2cncn2C)cc1 (stereo not given)
1.73

Dear reader, for each entry below, please note its log10(IC50).
1. Cc1cccc(-c2cc(C(OCc3ccc(C#N)cc3)c3cncn3C)ccc2C#N)c1C (stereo not given)
2. Cc1ccccc1-c1cc(C(OCc2ccc(F)cc2)c2cncn2C)ccc1C#N (stereo not given)

**Result**
1: 0.32; 2: 1.51

* * *

biological target: Protein farnesyltransferase (Bos taurus, UniProt P29702+P49355); assay: Inhibition of Bovine farnesyl transferase
ASSAY_METRIC: pIC50
Answers are plain numbers, as −log10 of the molar value.

Cc1ccccc1-c1cc(C(OCc2ccccc2[N+](=O)[O-])c2cncn2C)ccc1C#N (stereo not drawn)
7.48
Cn1cncc1C(OCc1ccc(C#N)cc1)c1ccc(C#N)c(-c2ccc(Cl)cc2Cl)c1 (stereo not drawn)
7.33
Cc1ccccc1-c1cc(C(OCc2cnc(Cl)c(Cl)c2)c2cncn2C)ccc1C#N (stereo not drawn)
7.82
Cc1ccccc1-c1cc(C(OCc2cccc(C(F)(F)F)c2)c2cncn2C)ccc1C#N (stereo not drawn)
8.09
COc1ccc(COC(c2ccc(C#N)c(-c3ccccc3C)c2)c2cncn2C)cc1 (stereo not drawn)
7.23

Dear reader, for each entry below, please note its pIC50.
1. Cc1ccccc1-c1cc(C(OCc2ccc(C#N)cc2)c2cncn2C)ccc1C#N (stereo in doubt; 10a)
2. Cn1cncc1C(OCc1ccc(C(F)(F)F)c(F)c1)c1ccc(C#N)c(-c2ccccc2C(F)(F)F)c1 (stereo not drawn)
3. Cc1ccccc1-c1cc(C(OCc2ccc(Cl)cc2)c2cncn2C)ccc1C#N (stereo not drawn)
4. Cn1cncc1C(OCc1ccc(C#N)c(N2CCN(CCO)CC2)n1)c1ccc(C#N)c(-c2ccccc2C(F)(F)F)c1 (stereo not drawn)

**Result**
[8.32, 8.21, 7.96, 8.89]

Dear reader, for each entry below, please note its pIC50.
1. Cn1cncc1C(OCc1ccc(C#N)cc1)c1ccc(C#N)c(-c2cccc(Cl)c2Cl)c1 (stereo not drawn)
2. Cc1ccccc1-c1cc(C(OCc2cc(Cl)nc(Cl)c2)c2cncn2C)ccc1C#N (stereo not drawn)
3. Cc1ccccc1-c1cc(C(OCc2ccccc2F)c2cncn2C)ccc1C#N (stereo not drawn)
4. Cc1ccccc1-c1cc(C(OCc2c(Cl)cccc2Cl)c2cncn2C)ccc1C#N (stereo not drawn)
5. Cc1ccccc1COC(c1ccc(C#N)c(-c2ccccc2C)c1)c1cncn1C (stereo not drawn)

**Result**
[8.82, 7.89, 7.15, 7.09, 7.27]

Dear reader, for each entry below, please note its pIC50.
1. Cn1cncc1C(OCc1ccc(Cl)c(Cl)c1)c1ccc(C#N)c(-c2ccccc2C(F)(F)F)c1 (stereo not drawn)
2. COC(=O)c1ccc(COC(c2ccc(C#N)c(-c3ccccc3C)c2)c2cncn2C)cc1 (stereo not drawn)

**Result**
1: 8.77; 2: 8.21

Dear reader, for each entry below, please note its pIC50.
1. Cc1ccccc1-c1cc(C(OCc2ccccc2Cl)c2cncn2C)ccc1C#N (stereo not drawn)
2. Cc1ccccc1-c1cc(C(OCc2ccc(Br)cc2)c2cncn2C)ccc1C#N (stereo not drawn)
3. Cc1ccccc1-c1cc(C(OCc2ccccc2C#N)c2cncn2C)ccc1C#N (stereo not drawn)
4. Cc1ccccc1-c1cc(C(OCc2cccc(F)c2)c2cncn2C)ccc1C#N (stereo not drawn)
5. Cc1ccccc1-c1cc(C(OCc2cccc(Br)c2)c2cncn2C)ccc1C#N (stereo not drawn)
6. Cc1ccccc1-c1cc(C(OCc2ccc(C#N)cc2)c2cncn2C)ccc1C#N (stereo in doubt; 4q)
7. Cn1cncc1C(OCc1ccc(C#N)cc1)c1ccc(C#N)c(-c2ccccc2CO)c1 (stereo not drawn)

**Result**
1. 7.32
2. 7.92
3. 7.21
4. 7.42
5. 7.89
6. 8.40
7. 8.26
